- System: Staphylococcus sp.
- assay text: in vitro antibacterial evaluation, MIC by broth dilution
- Assay type: cell-based
- condition parameters: strain GC 4551; broth dilution, 18 hours at 35° C.
Numbered stars: 1 amine (or outer) side, 2 acyl side, 3 side chain; on linkers, the order of the positions; unused ones are H or OH. Square brackets hold non-standard residues; d marks the D form. Peptide text beside a SMILES is read from it. ξ: configuration not given here. X1 = N=C1NCC(C(O)C(N[*:1])C(=O)[*:2])N1C1OC(CO)C(O)C(O)C1O; ξEnduracididine(βξ-OH,4'ξ) = N=C1NCC(C(O)C(N)C(=O)O)N1; ξCha(3ξ-Me) = CC(C1CCCCC1)C(N)C(=O)O; Cha = N[CH](CC1CCCCC1)C(=O)O
Note to self: use 1 only for MIC Coagulase Negative Staphylococcus (GC 4551) readings below 4 µg/mL; a reading exactly at 4 µg/mL still gets 0.

Record excerpt, results attached:
CC(c1ccccc1)C1NC(=O)CNC(=O)C(CO)NC(=O)C(C(O)C2CNC(=N)N2C2OC(CO)C(O)C(O)C2O)NC(=O)C(C(O)C2CNC(=N)N2)NC(=O)C(Cc2ccc3oc(-c4ccccc4OC4OC(CO)C(O)C(O)C4O)nc3c2)NC1=O (centres unmarked)    0
CC(C1CCCCC1)C1NC(=O)CNC(=O)C(CO)NC(=O)C(C(O)C2CNC(=N)N2C2OC(CO)C(O)C(O)C2O)NC(=O)C(C(O)C2CNC(=N)N2)NC(=O)C(CC2CCCCC2)NC1=O (stereo not drawn) [Example 53] (cyclo(G[ξCha(3ξ-Me)][Cha][ξEnduracididine(βξ-OH,4'ξ)][X1]S); configuration not given here)    1
CC(C)C(=O)Nc1cc(CC2NC(=O)C(C(C)c3ccccc3)NC(=O)CNC(=O)C(CO)NC(=O)C(C(O)C3CNC(=N)N3C3OC(CO)C(O)C(O)C3O)NC(=O)C(C(O)C3CNC(=N)N3)NC2=O)ccc1O (centres unmarked)    0
CC(C1CCCCC1)C1NC(=O)CNC(=O)C(CO)NC(=O)C(C(O)C2CNC(=N)N2C2OC(CO)C(O)C(O)C2O)NC(=O)C(C(O)C2CNC(=N)N2)NC(=O)C(Cc2ccc(OC3OC(CO)C(OC4OC5COC(c6ccccc6)OC5C(O)C4O)C(O)C3O)cc2)NC1=O (centres unmarked)    1
CC(C)=CCCC(C)=CCN=C1NCC(C(O)C2NC(=O)C(C(O)C3CNC(=N)N3)NC(=O)C(Cc3ccc(OC4OC(CO)C(OC5OC6COC7(OC6C(O)C5O)C5CC6CC(C5)CC7C6)C(O)C4O)cc3)NC(=O)C(C(C)c3ccccc3)NC(=O)CNC(=O)C(CO)NC2=O)N1C1OC(CO)C(O)C(O)C1O (centres unmarked)    0

## Task MIC Coagulase Negative Staphylococcus (GC 4551) under 4 µg/mL? Item: N=C1NCC(C(O)C2NC(=O)C(CC3CCCCC3)NC(=O)C(CC3CCCCC3)NC(=O)CNC(=O)C(CO)NC(=O)C(C(O)C3CNC(=N)N3C3OC(CO)C(O)C(O)C3O)NC2=O)N1 (stereo not drawn) [Example 52] (cyclo(G[Cha][Cha][ξEnduracididine(βξ-OH,4'ξ)][X1]S); configuration not given here)
## Result 0

## Task MIC Coagulase Negative Staphylococcus (GC 4551) under 4 µg/mL? Item: CC(c1ccccc1)C1NC(=O)CNC(=O)C(CO)NC(=O)C(C(O)C2CN(CCCCCCCCCCC(=O)O)C(=N)N2C2OC(CO)C(O)C(O)C2O)NC(=O)C(C(O)C2CNC(=N)N2)NC(=O)C(Cc2ccc(OC3OC(CO)C(OC4OC(CO)C(O)C(O)C4O)C(O)C3O)cc2)NC1=O (centres unmarked)
## Result 0

## Task MIC Coagulase Negative Staphylococcus (GC 4551) under 4 µg/mL? Item: CC(c1ccccc1)C1NC(=O)CNC(=O)C(CO)NC(=O)C(C(O)C2CN(Cc3ccc(C(C)(C)C)cc3)C(=N)N2C2OC(CO)C(O)C(O)C2O)NC(=O)C(C(O)C2CNC(=N)N2)NC(=O)C(Cc2ccc(OC3OC(CO)C(OC4OC5COC6(OC5C(O)C4O)C4CC5CC(C4)CC6C5)C(O)C3O)cc2)NC1=O (centres unmarked)
## Result 0

## Task MIC Coagulase Negative Staphylococcus (GC 4551) under 4 µg/mL? Item: CC(c1ccccc1)C1NC(=O)CNC(=O)C(CO)NC(=O)C(C(O)C2CN(Cc3ccccc3)C(=NCc3ccccc3)N2C2OC(CO)C(O)C(O)C2O)NC(=O)C(C(O)C2CN(Cc3ccccc3)C(=NCc3ccccc3)N2Cc2ccccc2)NC(=O)C(Cc2ccc(OC3OC(CO)C(OC4OC(CO)C(O)C(O)C4O)C(O)C3O)cc2)NC1=O (centres unmarked)
## Result 0

## Task MIC Coagulase Negative Staphylococcus (GC 4551) under 4 µg/mL? Item: N=C1NCC(C(O)C2NC(=O)C(CC3CCC(OC4OC(CO)C(OC5OC6COC7(OC6C(O)C5O)C5CC6CC(C5)CC7C6)C(O)C4O)CC3)NC(=O)C(CC3CCCCC3)NC(=O)CNC(=O)C(CO)NC(=O)C(C(O)C3CNC(=N)N3C3OC(CO)C(O)C(O)C3O)NC2=O)N1 (single isomer, unassigned)
## Result 0

Where these numbers come from: patent US6914045B2
